Where these numbers come from: ChEMBL document CHEMBL4038284

Collected inhibition of growth at 3.4 µg/mL values appear next to each entry.
- Tested on: Cryptococcus neoformans
- ASSAY_REMARKS: Growth inhibition of Cryptococcus neoformans ATCC 32264 at 3.4 ug/ml incubated for 48 hrs under dark condition by broth microdilution method relative to control
- Type: functional
- STUDY_CONDITIONS: ATCC 32264, 48 h, read-out: GI
Your answer should be a plain number; it is taken to be in %.

Kindly note: Cryptococcus neoformans, C[C@@H]1[C@H](O)[C@@H](C)/C=C/C=C/C=C/C=C/C=C/C=C/C=C/[C@H](O[C@@H]2O[C@H](C)[C@@H](O)[C@H](N)[C@@H]2O)C[C@@H]2O[C@](O)(C[C@@H](O)C[C@@H](O)[C@H](O)CC[C@@H](O)C[C@@H](O)CC(=O)O[C@H]1C)C[C@H](O)[C@H]2C(=O)O , inhibition of growth at 3.4 µg/mL value reported: 100

Kindly note: Cryptococcus neoformans, Clc1cc(Cl)cc(N2N=C(c3ccccc3)CC2c2cccc(Nc3ccnc4cc(Cl)ccc34)c2)c1 (stereo not drawn) , inhibition of growth at 3.4 µg/mL value reported: 0

Kindly note: Cryptococcus neoformans, COc1cc(C2=NN(c3ccc(Cl)cc3)C(c3cccc(Nc4ccnc5cc(Cl)ccc45)c3)C2)cc(OC)c1OC (stereo not drawn) , inhibition of growth at 3.4 µg/mL value reported: 8.08

Others:
Kindly note: Cryptococcus neoformans, COc1ccc(C(=O)/C=C/c2cccc(Nc3ccnc4cc(Cl)ccc34)c2)cc1 , inhibition of growth at 3.4 µg/mL value reported: 0

Kindly note: Cryptococcus neoformans, CC(=O)N1N=C(c2ccc(Br)cc2)CC1c1cccc(Nc2ccnc3cc(Cl)ccc23)c1 (stereo not drawn) , inhibition of growth at 3.4 µg/mL value reported: 15.4

Kindly note: Cryptococcus neoformans, Clc1ccc2c(Nc3cccc(C4CC(c5ccc(Br)cc5)=NN4c4ccccc4)c3)ccnc2c1 (stereo not drawn) , inhibition of growth at 3.4 µg/mL value reported: 3.29

Kindly note: Cryptococcus neoformans, Cc1ccc(C2=NN(C=O)C(c3cccc(Nc4ccnc5cc(Cl)ccc45)c3)C2)cc1 (stereo not drawn) , inhibition of growth at 3.4 µg/mL value reported: 24.8

Kindly note: Cryptococcus neoformans, CC(=O)N1N=C(c2ccc(C)cc2)CC1c1cccc(Nc2ccnc3cc(Cl)ccc23)c1 (stereo not drawn) , inhibition of growth at 3.4 µg/mL value reported: 13.2

Kindly note: Cryptococcus neoformans, COc1ccc(C2=NN(C(C)=O)C(c3cccc(Nc4ccnc5cc(Cl)ccc45)c3)C2)cc1 (stereo not drawn) , inhibition of growth at 3.4 µg/mL value reported: 4.82

Kindly note: Cryptococcus neoformans, COc1cc(C(=O)/C=C/c2cccc(Nc3ccnc4cc(Cl)ccc34)c2)cc(OC)c1OC , inhibition of growth at 3.4 µg/mL value reported: 0

Kindly note: Cryptococcus neoformans, Clc1ccc(C2=NN(c3ccc(Cl)cc3)C(c3cccc(Nc4ccnc5cc(Cl)ccc45)c3)C2)cc1 (stereo not drawn) , inhibition of growth at 3.4 µg/mL value reported: 17.4

Kindly note: Cryptococcus neoformans, O=C(/C=C/c1cccc(Nc2ccnc3cc(Cl)ccc23)c1)c1ccccc1 , inhibition of growth at 3.4 µg/mL value reported: 17.9

Kindly note: Cryptococcus neoformans, O=CN1N=C(c2ccccc2)CC1c1cccc(Nc2ccnc3cc(Cl)ccc23)c1 (stereo not drawn) , inhibition of growth at 3.4 µg/mL value reported: 7.63
